experimentNotes: GC-MS headspace release profile of perfume in shampoo, 1/100 dilution in water
Assay type: physicochemical
runParameters: Tropical Fruit Perfume, 40 seconds
testReadout: GC Abundance
Enter the number alone.

Example cases with answers are listed next.
| compound | GC Abundance |
| --- | --- |
| CC(C)=CCCC(C)CCO (centres unmarked) [CITRONELLOL AJ, FCC, CITRONELLOL] | 7000 |
| CC/C(=C\CC1CC=C(C)C1(C)C)CO (centres unmarked) [BACDANOL] | 100 |
| CC1=CC(C)C(C=O)CC1 (centres unmarked) [TRIPLAL] | 10000 |
| CCC=C(C)C(O)CCCCC (centres unmarked) [UNDECAVERTOL, 4-Methyl-3-decen-5-ol] | 10000 |
| CC/C=C\CCO [CIS-3-HEXEN-1-OL] | 14000 |
| CCOC(=O)CC1(C)OCCO1 [FRUCTONE] | 5000 |

Reported GC Abundance ( CC=CC(=O)C1C(C)=CCCC1(C)C (stereo not drawn) [alpha-DAMASCONE] ) = 1000

Quick note, GC Abundance for CC/C=C\CCOC(=O)OC [LIFFAROME] landed at 3000

====

experimentNotes: GC-MS headspace release profile of perfume in shampoo, 1/100 dilution in water
Assay type: physicochemical
runParameters: Tropical Fruit Perfume, 20 seconds
Measured GC Abundance values are reported for all entries that follow.
Please respond with just the number, no unit label.

Previously resolved entries follow.
| compound | GC Abundance |
| --- | --- |
| CC/C=C\CCO [CIS-3-HEXEN-1-OL] | 14000 |
| C=CCOC(=O)CCCCCC [ALLYL HEPTOATE] | 4000 |
| CC/C=C\CCOC(=O)OC [LIFFAROME] | 3000 |
| C=CC(C)(O)CCC=C(C)CC (mixture of isomers) [ETHYL LINALOOL] | 5000 |
| C=CC(C)CCCC(C)(C)O (centres unmarked) [DIHYDROMYRCENOL] | 15000 |

The recorded GC Abundance for entry CCC(=O)OCc1ccccc1 [BENZYL PROPIONATE] equals 2000

// recorded GC Abundance for CC(=O)OCc1ccccc1 [BENZYL ACETATE] : 12000

====

// GC Abundance lookup, one value per entry
experimentNotes: GC-MS headspace release profile of perfume in shampoo, 1/100 dilution in water
Type: physicochemical
runParameters: Tropical Fruit Perfume, 40 seconds
Kindly provide the number alone.

| compound | GC Abundance |
| --- | --- |
| CCC(=O)OCc1ccccc1 [BENZYL PROPIONATE] | 6000 |
| CC(C)=CCCC(C)CCCC(C)C=O (stereo not drawn) | 300 |
| CC(C)c1cccc(C(C)CC=O)c1 (stereo not drawn) [FLORHYDRAL] | 9000 |
| C=C(C)[C@H]1CC=C(C)CC1 | 5000 |
| CC(C)=CC1CC(C)CCO1 (stereo not drawn) [ROSE OXIDE (HIGH CIS)] | 14000 |

Field: next compound
For reference, reported GC Abundance for CC(=O)OC1CCC(C(C)(C)C)CC1 (stereo not drawn) stands at 8000

====

experimentNotes: GC-MS headspace release profile of perfume in shampoo, 1/100 dilution in water
Assay type: physicochemical
runParameters: Tropical Fruit Perfume, 20 seconds
# reported GC Abundance; entries follow
Could you keep your reply to the number by itself?

| molecule | GC Abundance |
| --- | --- |
| CCCC(C)C(=O)OCC (stereo not shown) [MANZANATE, Ethyl 2-methylpentanoate] | 4000 |

For reference, reported GC Abundance for "C=C(C)[C@H]1CC=C(C)CC1" stands at 7000

Briefly, GC Abundance measured for CC(C)=CCCC(C)CCO (stereo not shown) : 7000

CCC(C)(O)CCC=C(C)C (stereo not shown) [DIHYDROLINALOOL] yielded GC Abundance of 3000
